For each of the molecules below, state its AC50.
Test system: MALME3 melanoma viability, CellTiter-Glo luminescence, 24 h
EXPERIMENT: growth inhibition of MALME3 cells – cell-based, CellTiter-Glo, cherry-picked, orthogonal assay for MITF inhibitor project, dose response (AID 493191)

Task item: Param item = `COc1ccccc1OCC(=O)N/N=C/C=C/c1ccc([N+](=O)[O-])o1` ; retrieve measured AC50.
Reply: 20.6 µM

Task item: Param item = `COC1=C(c2ccccc2)C(=O)c2ccccc2C1=O` ; retrieve measured AC50.
Reply: 20.3 µM

Task item: Param item = `CC1(C)CC(NC(=O)c2ccc(Cl)c(S(=O)(=O)N(Cc3ccccc3)c3ccccc3)c2)CC(C)(C)N1` ; retrieve measured AC50.
Reply: 22.7 µM

Task item: Param item = `COC(=O)c1ccc2c(c1O)C(=O)c1ccccc1C2=O` ; retrieve measured AC50.
Reply: 2.82 µM

Task item: Param item = O=C(CCl)N1N=C(c2ccco2)CC1c1cccs1 (configuration not stated) ; retrieve measured AC50.
Reply: 23 µM

Task item: Param item = `Cc1ccc(C(C)C)c(OCc2nn(CC(=O)c3ccc(Cl)cc3)c3[n+]2CCCCC3)c1` ; retrieve measured AC50.
Reply: 18.4 µM

Task item: Param item = `CC(C)C(=O)N1CCN(c2ccc(NC(=O)c3ccc([N+](=O)[O-])o3)cc2Cl)CC1` ; retrieve measured AC50.
Reply: 19.2 µM

Task item: Param item = CC(NC(=O)c1ccc([N+](=O)[O-])o1)C12CC3CC(CC(C3)C1)C2 (configuration not stated) ; retrieve measured AC50.
Reply: 31.9 µM

Task item: Param item = CC1CC2(C)Oc3ccccc3CC2C(C)C1CNCCCN(C)C (configuration not stated) ; retrieve measured AC50.
Reply: 15.9 µM

Task item: Param item = `Cc1ccc(NC(=O)c2cc(N3C(=O)C=CC3=O)ccc2N2CCOCC2)cc1` ; retrieve measured AC50.
Reply: 10.1 µM

Task item: Param item = `S=C=Nc1cccc(C2(N3CCCCC3)CCCCC2)c1` ; retrieve measured AC50.
Reply: 26 µM

Task item: Param item = `N#CC(C#N)=C1C=CC=CN1/C(=C\c1ccco1)C(=O)c1ccc(Cl)cc1` ; retrieve measured AC50.
Reply: 27.3 µM

Task item: Param item = `CC(=O)Nc1ccc(Nc2c3ccccc3nc3ccccc23)cc1` ; retrieve measured AC50.
Reply: 25.2 µM

Task item: Param item = `Cc1ccc(C(C)C)c(OCc2nn(CC(=O)c3ccc(OC(F)F)cc3)c3[n+]2CCCCC3)c1` ; retrieve measured AC50.
Reply: 24.2 µM

Task item: Param item = `Cn1nnnc1Sc1ncnc2scc(-c3ccc(C#N)cc3)c12` ; retrieve measured AC50.
Reply: 28.5 µM

Task item: Param item = `O=C1c2cc(F)ccc2-n2c1nc1ccccc1c2=O` ; retrieve measured AC50.
Reply: 4.39 µM

Task item: Param item = `C/C(=N/NC(=O)C(O)(c1ccccc1)c1ccccc1)c1ccc([N+](=O)[O-])o1` ; retrieve measured AC50.
Reply: 34.1 µM

====

Tested on: MALME3 melanoma viability, CellTiter-Glo luminescence, 24 h
EXPERIMENT: growth inhibition of MALME3 cells – cell-based, CellTiter-Glo, cherry-picked, orthogonal assay for MITF inhibitor project, dose response (AID 493191)
MEASURE: AC50

Task item: Param item = `CCN(CC)CCC(=O)N1C/C(=C/c2ccccc2)C(=O)/C(=C\c2ccccc2)C1` ; retrieve measured AC50.
Reply: 28.3 µM

Task item: Param item = `CCN1/C(=C/c2cc[n+](C)cc2)C=Cc2cc(C)ccc21` ; retrieve measured AC50.
Reply: 16.9 µM

Task item: Param item = `Oc1cc(NCCN2CCOCC2)cc2cccnc12` ; retrieve measured AC50.
Reply: 24.6 µM

Task item: Param item = `O=C(CCl)N(c1ccccc1)C1CCCCC1` ; retrieve measured AC50.
Reply: 20.1 µM

Task item: Param item = `C=Cc1ncc(OC)c2c1[nH]c1ccccc12` ; retrieve measured AC50.
Reply: 31.5 µM

Task item: Param item = OC(CNCC(c1ccc(Cl)cc1Cl)c1c[nH]c2ccccc12)c1ccccc1 (configuration not stated) ; retrieve measured AC50.
Reply: 19.1 µM

Task item: Param item = `CC(=O)c1c(C)oc2c1C(=O)c1ccccc1C2=O` ; retrieve measured AC50.
Reply: 21.2 µM

Task item: Param item = `CCCNC(=O)COC(=O)c1ccccc1C(=O)c1ccc(Cl)c([N+](=O)[O-])c1` ; retrieve measured AC50.
Reply: 16.3 µM

Task item: Param item = `Cc1cc(C)c2c(N)c3cccc(C)c3nc2n1` ; retrieve measured AC50.
Reply: 27.9 µM

Task item: Param item = `Cc1ccccc1C(=O)N/N=C/c1ccc([N+](=O)[O-])s1` ; retrieve measured AC50.
Reply: 30.9 µM

Task item: Param item = `CC(=O)OCCNc1cc(Sc2nc3ccccc3[nH]2)c2nonc2c1[N+](=O)[O-]` ; retrieve measured AC50.
Reply: 13.6 µM

Task item: Param item = `Cc1ccc2nc(C)cc(Nc3ccc([N+](=O)[O-])cc3)c2c1` ; retrieve measured AC50.
Reply: 31.5 µM

Task item: Param item = `O=C(N/N=C/c1ccc([N+](=O)[O-])o1)c1ccc(O)cc1` ; retrieve measured AC50.
Reply: 10.9 µM

Task item: Param item = `CCN1CCN(c2ccc(S(=O)(=O)N3CCCCC3)cc2NC(=O)/C=C/c2ccc([N+](=O)[O-])cc2)CC1` ; retrieve measured AC50.
Reply: 23.9 µM

Task item: Param item = CC1CN(C(=O)CCC(=O)NCCCN2CCC(Cc3ccccc3)CC2)c2cc(Cl)ccc2O1 (configuration not stated) ; retrieve measured AC50.
Reply: 19.4 µM

Task item: Param item = `COc1ccc(C(=O)/C(C#N)=N/Nc2ccc([N+](=O)[O-])cc2)cc1` ; retrieve measured AC50.
Reply: 16 µM

Task item: Param item = `O=C1/C(=N\S(=O)(=O)c2cccs2)C([n+]2ccccc2)=C([O-])c2ccccc21` ; retrieve measured AC50.
Reply: 3.81 µM

Task item: Param item = `C=CCNC1=C(Cl)C(=O)c2ccccc2C1=O` ; retrieve measured AC50.
Reply: 15.6 µM

Task item: Param item = `CCN(CC)CCNC(=O)c1c(C)n(-c2ccccc2)c2cc(Br)c(OC)cc12` ; retrieve measured AC50.
Reply: 18.9 µM

Task item: Param item = `O=C(CCl)Nc1cccc(-c2cnc3ccccc3n2)c1` ; retrieve measured AC50.
Reply: 15.2 µM

Task item: Param item = `COc1ccccc1NC(=O)c1nc(S(=O)(=O)Cc2ccccc2)ncc1Cl` ; retrieve measured AC50.
Reply: 6.97 µM

Task item: Param item = `Cc1cc(NC(=O)c2ccc([N+](=O)[O-])o2)ccc1NC(=O)c1ccco1` ; retrieve measured AC50.
Reply: 12.5 µM

Task item: Param item = `O=[N+]([O-])c1ccc(/C=N/n2cnc3ccccc32)s1` ; retrieve measured AC50.
Reply: 8.99 µM

Task item: Param item = `O=C(Cn1ncc(Cl)c(Cl)c1=O)N1CCOCC1` ; retrieve measured AC50.
Reply: 20.6 µM

Task item: Param item = `CC1=NNC(=O)/C1=C\c1cn(-c2ccccc2)nc1-c1ccc(F)cc1` ; retrieve measured AC50.
Reply: 25.9 µM

Task item: Param item = `COC1=C(Nc2ccccc2)C(=O)c2ccccc2C1=O` ; retrieve measured AC50.
Reply: 22 µM

Task item: Param item = `COc1cc(NC(=O)c2ccc([N+](=O)[O-])o2)ccc1NC(=O)c1cccs1` ; retrieve measured AC50.
Reply: 13.1 µM

Task item: Param item = `COc1ccc(-c2cc3c(nn2)-c2ccccc2C3=O)cc1` ; retrieve measured AC50.
Reply: 14.5 µM

Task item: Param item = `CS(=O)(=O)c1ncc(Cl)c(C(=O)Nc2ccc3ccccc3c2)n1` ; retrieve measured AC50.
Reply: 15.2 µM

Task item: Param item = `Cc1scc(C(=O)N/N=C/c2ccc([N+](=O)[O-])o2)c1C` ; retrieve measured AC50.
Reply: 15.7 µM

Task item: Param item = O=C1NC2c3c(I)sc(I)c3C(=O)C2O1 (configuration not stated) ; retrieve measured AC50.
Reply: 16.6 µM

Task item: Param item = `O=C(Nc1ccc2oc(-c3cccnc3)nc2c1)c1ccc([N+](=O)[O-])o1` ; retrieve measured AC50.
Reply: 25.9 µM
